Values from paper PMC11475281

# MEASURED_TARGET: HDAC8 (Homo sapiens, UniProt Q9BY41)
# Sequence (Q9BY41 1-377): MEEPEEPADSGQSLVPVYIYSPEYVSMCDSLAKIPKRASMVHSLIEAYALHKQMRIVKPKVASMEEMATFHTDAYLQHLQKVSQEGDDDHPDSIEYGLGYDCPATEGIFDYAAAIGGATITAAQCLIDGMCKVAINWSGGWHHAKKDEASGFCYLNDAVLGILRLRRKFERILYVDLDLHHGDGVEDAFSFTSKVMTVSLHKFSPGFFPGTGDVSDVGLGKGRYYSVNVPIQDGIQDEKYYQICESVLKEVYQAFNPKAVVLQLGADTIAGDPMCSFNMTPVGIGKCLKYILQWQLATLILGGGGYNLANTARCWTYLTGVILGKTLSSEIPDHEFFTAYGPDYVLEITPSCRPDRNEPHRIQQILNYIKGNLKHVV
# MEASUREMENT_NOTES: HDAC isoform inhibition (BPS Bioscience)
# CONDITION_SUMMARY: read-out: HDAC8 IC50; Table S1
Give pIC50 for every item shown.
Units for pIC50: none; it is -log10 of a concentration expressed in mol/L.

QUERY: Data request, read-out pIC50, for CC(=O)OCC1OC(Oc2ccc(-c3cn(CCCCCCC(=O)NO)nn3)cc2)C(OC(C)=O)C(OC(C)=O)C1OC(C)=O (stereo not shown) [STR-V-167]
RESULT: 6.51

QUERY: Data request, read-out pIC50, for CC(=O)O[C@H]1[C@H](Oc2ccc(-c3cn(CCCCCCC(=O)NO)nn3)cc2)O[C@H](C)C[C@@H]1N(C)C
RESULT: 6.09

QUERY: Data request, read-out pIC50, for O=C(CCCCCCn1cc(-c2ccc3cc(O[C@@H]4O[C@H](CO)[C@@H](O)[C@H](O)[C@H]4O)ccc3c2)nn1)NO
RESULT: 6.50

QUERY: Data request, read-out pIC50, for CC(=O)OCC1OC(Oc2ccc(-c3cn(CCCCCCC(=O)NO)nn3)cc2)C(OC(C)=O)C(OC(C)=O)C1OC(C)=O (stereo not shown) [STR-V-176]
RESULT: 6.57

QUERY: Data request, read-out pIC50, for CC(=O)OCC1OC(Oc2ccc3cc(-c4cn(CCCCCCC(=O)NO)nn4)ccc3c2)C(OC(C)=O)C(OC(C)=O)C1OC(C)=O (stereo not shown)
RESULT: 6.14

QUERY: Data request, read-out pIC50, for O=C(CCCCCCn1cc(-c2ccc3cc(O[C@H]4O[C@H](CO)[C@@H](O)[C@H](O)[C@H]4O)ccc3c2)nn1)NO
RESULT: 5.67

QUERY: Data request, read-out pIC50, for O=C(CCCCCCn1cc(-c2ccc(O[C@@H]3O[C@H](CO)[C@@H](O)[C@H](O)[C@H]3O)cc2)nn1)NO
RESULT: 6.33
